- Experiment Notes: Positive inotropic activity in New Zealand White rabbit beating left atrium assessed as increase in stroke volume at 100 umol/L after 36 mins
- Format: functional, Oryctolagus cuniculus, Cardiac atrium
Rule: Activity below 5% gives criterion met, anything at or above gives criterion not met.

A selection of reference data follows.
>>> group("Cc1nnc2n1-c1ccc(NC(=O)C3CCN(Cc4ccc5c(c4)OCO5)CC3)cc1CC2")
"criterion met"
>>> group("COc1cc(CN2CCC(C(=O)Nc3ccc4c(c3)CCc3nnc(C)n3-4)CC2)ccc1OCc1ccc(Cl)cc1Cl")
"criterion met"
>>> group("Cc1nnc2n1-c1ccc(NC(=O)C3CCN(Cc4ccccc4F)CC3)cc1CC2")
"criterion not met"
>>> group("COc1cc(CN2CCC(C(=O)Nc3ccc4c(c3)CCc3nnc(C)n3-4)CC2)ccc1OCc1ccccc1")
"criterion not met"

Field: next compound
Determine whether this compound shows Activity lower than 5% (ties excluded): Cc1nnc2n1-c1ccc(NC(=O)C3CCN(Cc4ccc(Cl)cc4Cl)CC3)cc1CC2
criterion not met

====

- Experiment Notes: Positive inotropic activity in New Zealand White rabbit beating left atrium assessed as increase in stroke volume at 100 umol/L after 36 mins
- Assay type: functional, Oryctolagus cuniculus, Cardiac atrium
Note to self: class labels come from recorded Activity, ranges listed here: low end = under 2%, middle = from 2% up to 6%, high end = 6% and over

These recorded examples may help you get a feel for the data.
>>> group("COc1cc(CN2CCC(C(=O)Nc3ccc4c(c3)CCc3nnc(C)n3-4)CC2)ccc1OCc1cccc(Cl)c1")
"middle"
>>> group("Cc1nnc2n1-c1ccc(NC(=O)C3CCN(Cc4cccc([N+](=O)[O-])c4)CC3)cc1CC2")
"high end"
>>> group("COc1cc(CN2CCC(C(=O)Nc3ccc4c(c3)CCc3nnc(C)n3-4)CC2)ccc1OCc1ccccc1F")
"high end"
>>> group("COc1cc(CN2CCC(C(=O)Nc3ccc4c(c3)CCc3nnc(C)n3-4)CC2)ccc1OCc1cccc(F)c1")
"low end"
>>> group("Cc1nnc2n1-c1ccc(NC(=O)C3CCN(Cc4ccccc4Cl)CC3)cc1CC2")
"low end"
>>> group("Cc1nnc2n1-c1ccc(NC(=O)C3CCN(Cc4cccc(F)c4)CC3)cc1CC2")
"low end"
>>> group("Cc1[nH]c(=O)c(C#N)cc1-c1ccncc1")
"high end"
>>> group("COc1ccc(CN2CCC(C(=O)Nc3ccc4c(c3)CCc3nnc(C)n3-4)CC2)cc1OC")
"low end"
>>> group("COc1cc(CN2CCC(C(=O)Nc3ccc4c(c3)CCc3nnc(C)n3-4)CC2)ccc1OCc1ccc(Cl)cc1")
"middle"
>>> group("Cc1nnc2n1-c1ccc(NC(=O)C3CCN(Cc4cccc(Cl)c4)CC3)cc1CC2")
"high end"

From here, focus on the item given below.
Returns: class label. Input: Cc1nnc2n1-c1ccc(NC(=O)C3CCN(Cc4ccccc4Br)CC3)cc1CC2
low end
